Can you tell me PBM binding z-score for the items I'm about to list?
test system: LXRb homodimer (NR concentration 270 nM); assay: PBM binding z-score (relative to random genomic background probes); higher = stronger binding; sequences stand for … in GC…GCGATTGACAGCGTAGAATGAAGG

The cases that follow already have their PBM binding z-score on record.
INSERT INTO assay_data (residue_sequence, experimental_endpoint, assay_result) VALUES
  ('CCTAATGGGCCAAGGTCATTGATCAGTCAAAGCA', 'PBM binding z-score', -0.303),
  ('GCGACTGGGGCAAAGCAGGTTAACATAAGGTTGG', 'PBM binding z-score', -1.01),
  ('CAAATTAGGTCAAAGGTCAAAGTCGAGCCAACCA', 'PBM binding z-score', 3.55),
  ('CCTTACGCGTCACTGACAGGTTATAGCATTTGGA', 'PBM binding z-score', 0.644),
  ('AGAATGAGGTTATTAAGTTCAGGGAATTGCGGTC', 'PBM binding z-score', 0.228),
  ('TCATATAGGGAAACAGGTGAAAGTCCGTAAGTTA', 'PBM binding z-score', -0.148),
  ('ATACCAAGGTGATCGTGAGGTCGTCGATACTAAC', 'PBM binding z-score', -0.191),
  ('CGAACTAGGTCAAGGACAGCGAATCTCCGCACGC', 'PBM binding z-score', -0.45);

Batch request: PBM binding z-score for each of the following sequences.
1. CATGCTAGGTCATGGTCAGCTAATCTACAGTATG
2. CCTACTGGGCCCTCAGGTCATTGATATCAACGTT
3. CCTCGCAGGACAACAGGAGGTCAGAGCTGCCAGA

result:
1. -0.0133
2. -0.368
3. -0.469

Batch request: PBM binding z-score for each of the following sequences.
1. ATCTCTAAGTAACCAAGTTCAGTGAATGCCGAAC
2. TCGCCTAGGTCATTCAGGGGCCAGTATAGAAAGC

result:
1: 0.349; 2: 0.742

---

system: LXRa:RXRa (NR concentration 270 nM, RXRa partner concentration 90 nM); experiment: PBM binding z-score (relative to random genomic background probes); higher = stronger binding; sequences stand for … in GC…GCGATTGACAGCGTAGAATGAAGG
experimental-endpoint: PBM binding z-score
One number for each entry.

Batch request: PBM binding z-score for each of the following sequences.
1. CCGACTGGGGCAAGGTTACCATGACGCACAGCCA
2. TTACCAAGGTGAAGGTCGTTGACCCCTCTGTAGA
3. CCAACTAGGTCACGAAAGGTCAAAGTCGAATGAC

result:
1: 0.558; 2: 5.25; 3: 8.21

---

tested on: RARb:RXRa (NR concentration 270 nM, RXRa partner concentration 90 nM); experiment: PBM binding z-score (relative to random genomic background probes); higher = stronger binding; sequences stand for … in GC…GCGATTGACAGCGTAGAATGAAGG
experimental-endpoint: PBM binding z-score
One number for each entry.

Batch request: PBM binding z-score for each of the following sequences.
1. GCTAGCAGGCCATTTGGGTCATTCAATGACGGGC
2. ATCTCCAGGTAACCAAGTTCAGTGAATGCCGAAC
3. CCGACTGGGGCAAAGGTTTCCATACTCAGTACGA
4. ATCTGTAGGTAACAAGTTCAGTGAAAGAGAGGAC
5. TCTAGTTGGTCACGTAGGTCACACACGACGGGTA
6. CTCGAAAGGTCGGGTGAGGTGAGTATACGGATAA

result:
[1.28, 0.985, 0.737, 1.63, 3.26, 3.52]

---

system: THRa homodimer (NR concentration 90 nM); assay: PBM binding z-score (relative to random genomic background probes); higher = stronger binding; sequences stand for … in GC…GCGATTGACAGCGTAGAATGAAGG
Can you tell me PBM binding z-score for the items I'm about to list?

The cases that follow already have their PBM binding z-score on record.
INSERT INTO assay_data (residue_sequence, target_or_test_system, assay_result) VALUES
  ('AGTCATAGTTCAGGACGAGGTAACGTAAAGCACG', 'THRa homodimer (NR concentration 90 nM)', 1.67),
  ('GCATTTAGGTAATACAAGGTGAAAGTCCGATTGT', 'THRa homodimer (NR concentration 90 nM)', 1.59),
  ('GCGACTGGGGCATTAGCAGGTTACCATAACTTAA', 'THRa homodimer (NR concentration 90 nM)', 0.101),
  ('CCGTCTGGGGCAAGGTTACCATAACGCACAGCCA', 'THRa homodimer (NR concentration 90 nM)', 0.197),
  ('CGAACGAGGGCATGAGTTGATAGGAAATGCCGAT', 'THRa homodimer (NR concentration 90 nM)', -0.419);

Batch request: PBM binding z-score for each of the following sequences.
1. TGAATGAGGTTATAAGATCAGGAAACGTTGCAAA
2. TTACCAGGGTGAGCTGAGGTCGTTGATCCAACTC
3. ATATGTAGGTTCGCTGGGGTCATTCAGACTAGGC
4. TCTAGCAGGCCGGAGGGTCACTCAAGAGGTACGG

result:
1. -0.0709
2. 1.57
3. 3.34
4. -0.391

Batch request: PBM binding z-score for each of the following sequences.
1. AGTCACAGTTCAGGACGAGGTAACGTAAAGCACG
2. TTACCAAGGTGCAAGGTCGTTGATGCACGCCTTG
3. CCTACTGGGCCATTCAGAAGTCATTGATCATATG
4. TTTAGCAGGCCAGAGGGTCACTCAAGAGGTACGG
5. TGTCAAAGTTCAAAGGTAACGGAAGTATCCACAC
6. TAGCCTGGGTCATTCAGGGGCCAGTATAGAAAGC

result:
1. 1.84
2. 0.68
3. -0.643
4. -0.313
5. 0.158
6. -0.502

Batch request: PBM binding z-score for each of the following sequences.
1. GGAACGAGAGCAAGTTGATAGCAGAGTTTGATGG
2. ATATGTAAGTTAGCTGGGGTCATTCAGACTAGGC
3. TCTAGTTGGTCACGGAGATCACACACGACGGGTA

result:
1. -1.15
2. 3.21
3. 0.328

query: For the sequence `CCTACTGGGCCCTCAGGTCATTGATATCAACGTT` , what PBM binding z-score is on record?
result: 2.78

---

system: RARa homodimer (NR concentration 270 nM); experiment: PBM binding z-score (relative to random genomic background probes); higher = stronger binding; sequences stand for … in GC…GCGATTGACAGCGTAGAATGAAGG
Think of 0.3 as a floor: if PBM binding z-score stands on it or above, it is y; beneath it, n.

INSERT INTO measurements (residue_sequence, target_or_test_system, class_assignment) VALUES
  ('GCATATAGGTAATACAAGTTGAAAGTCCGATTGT', 'RARa homodimer (NR concentration 270 nM)', 'y'),
  ('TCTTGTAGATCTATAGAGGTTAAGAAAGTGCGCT', 'RARa homodimer (NR concentration 270 nM)', 'n'),
  ('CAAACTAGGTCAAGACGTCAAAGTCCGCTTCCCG', 'RARa homodimer (NR concentration 270 nM)', 'y'),
  ('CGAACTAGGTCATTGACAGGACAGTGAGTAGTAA', 'RARa homodimer (NR concentration 270 nM)', 'n'),
  ('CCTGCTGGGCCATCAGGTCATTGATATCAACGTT', 'RARa homodimer (NR concentration 270 nM)', 'n');

query: Exam item: decide whether the reported PBM binding z-score for `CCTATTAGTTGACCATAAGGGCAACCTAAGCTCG` is at least 0.3.
result: y

query: Exam item: decide whether the reported PBM binding z-score for `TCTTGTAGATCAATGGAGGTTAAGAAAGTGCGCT` is at least 0.3.
result: y

query: Exam item: decide whether the reported PBM binding z-score for `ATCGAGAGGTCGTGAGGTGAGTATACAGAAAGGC` is at least 0.3.
result: y

query: Exam item: decide whether the reported PBM binding z-score for `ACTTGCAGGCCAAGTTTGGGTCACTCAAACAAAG` is at least 0.3.
result: n

query: Exam item: decide whether the reported PBM binding z-score for `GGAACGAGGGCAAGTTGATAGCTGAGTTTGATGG` is at least 0.3.
result: n

query: Exam item: decide whether the reported PBM binding z-score for `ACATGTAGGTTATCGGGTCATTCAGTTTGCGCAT` is at least 0.3.
result: y

query: Exam item: decide whether the reported PBM binding z-score for `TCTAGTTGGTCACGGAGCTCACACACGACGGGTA` is at least 0.3.
result: n

query: Exam item: decide whether the reported PBM binding z-score for `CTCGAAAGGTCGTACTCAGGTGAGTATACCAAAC` is at least 0.3.
result: n

query: Exam item: decide whether the reported PBM binding z-score for `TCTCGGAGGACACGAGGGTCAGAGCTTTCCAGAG` is at least 0.3.
result: n

query: Exam item: decide whether the reported PBM binding z-score for `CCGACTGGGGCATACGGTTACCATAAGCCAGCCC` is at least 0.3.
result: n

query: Exam item: decide whether the reported PBM binding z-score for `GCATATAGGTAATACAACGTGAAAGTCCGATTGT` is at least 0.3.
result: n

query: Exam item: decide whether the reported PBM binding z-score for `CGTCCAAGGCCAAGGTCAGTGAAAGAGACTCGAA` is at least 0.3.
result: y

query: Exam item: decide whether the reported PBM binding z-score for `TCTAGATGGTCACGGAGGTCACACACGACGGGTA` is at least 0.3.
result: y

query: Exam item: decide whether the reported PBM binding z-score for `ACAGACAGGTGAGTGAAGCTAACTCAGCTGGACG` is at least 0.3.
result: n

query: Exam item: decide whether the reported PBM binding z-score for `ATACCACGGTGATCGTGAGGTCGTTGATACTAAC` is at least 0.3.
result: n

query: Exam item: decide whether the reported PBM binding z-score for `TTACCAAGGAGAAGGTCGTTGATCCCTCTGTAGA` is at least 0.3.
result: n
